- Test system: LP-1 myeloma cells
- Method: Cell viability MTS assay, LP1
- Assay type: cell-based
- Test Parameters: 72 hours
Some compounds, each annotated with its measured LD50 whole cell, LP1.
Note: unit μm is implicit; provide only the numeric part.

Solved entries:
{"columns": ["Compound", "Unit Annotation", "LD50 whole cell, LP1"],
 "data": [
  ["O=[N+]([O-])c1ccc(O)c2ncccc12 [HNQ, 8-hydroxy-5-nitroquinoline]", "μm", 15.6],
  ["Oc1c(Br)cc(Cl)c2cccnc12 [BCQ, 7-bromo-5-chloro-8-hydroxyquinoline]", "μm", 31.25],
  ["Nc1ccc(O)c2ncccc12 [5AHQ, 5-amino-8-hydroxyquinoline]", "μm", 12.5],
  ["Oc1ccc(Cl)c2cccnc12 [COQ, 5-chloro-8-hydroxyquinoline]", "μm", 31.25]
]}

Kindly consider the entry below.
Oc1c(I)cc(Cl)c2cccnc12 [Clioquinol, 5-chloro-7-iodo-8-hydroxyquinoline, reference compound] tested on LP-1 myeloma cells gave LD50 whole cell, LP1: 31.25
